Each recorded value in this set is attributed to PubChem BioAssay AID1159580.

Test: chemical genetic growth profiling, strain panel (AID 1159580);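 also: tested at 20 µM; growth read once vehicle control cultures reached saturation at 30 °C; 1 = growth at the plate median or of vehicle wells; lower values mean less growth of the strain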
Conditions: S. cerevisiae deletion strains, growth OD, locus YCL061C, strain MRC1 (second series), active compounds read low
Screen size: about 5,500 compounds; about 2,000 (36%) were called active. About 18% were inconclusive and are not listed. The list shows a part of the results.
PROPERTY LABEL: normalized growth

COMPOUND	RESULT
COc1cc(C(O)CO)ccc1O (stereo unspecified)	0.985 (inactive)
NCCC(=O)NCCc1cnc[nH]1	0.997 (inactive)
CC(C)(C)NCC(O)COc1cccc2[nH]c(=O)[nH]c12 (stereo unspecified)	1.01 (inactive)
COc1ccc(C2CNC(=O)C2)cc1OC1CCCC1 (stereo unspecified)	1 (inactive)
Nc1cc(=O)[nH]c(N)n1	0.991 (inactive)
Fc1ccc(C(OCCCc2cnc[nH]2)c2ccc(F)cc2)cc1	1 (inactive)
c1ccc(CCCN2CCN(CCOC(c3ccccc3)c3ccccc3)CC2)cc1	0.932 (active)
c1ccc2c(c1)CCCC2C1=NCCN1 (stereo unspecified)	1.01 (inactive)
Fc1ccc(C(OCCN2CCN(CCCc3ccccc3)CC2)c2ccc(F)cc2)cc1	0.881 (active)
O=C1c2c(O)cc(O)cc2OC(c2ccc(O)c(O)c2)C1O (stereo unspecified)	0.999 (inactive)
CCCCCCCCCCCCCCCCCCNC(=O)OCC(COP(=O)([O-])OCC[n+]1ccsc1)OC (stereo unspecified)	1 (inactive)
CN1C2CCC1CC(OC(=O)c1c[nH]c3ccccc13)C2 (stereo unspecified)	1 (inactive)
Cc1ccc(S(=O)(=O)NC(=O)NN2CCCCCC2)cc1	0.998 (inactive)
CCCCNC(=O)NS(=O)(=O)c1ccc(C)cc1	1 (inactive)
O=P(O)(O)C(Cl)(Cl)P(=O)(O)O	0.995 (inactive)
Nc1nc(OCc2ccccc2)c2[nH]cnc2n1	1 (inactive)
C#CCN(C)Cc1ccccc1	1 (inactive)
CC(=O)c1c(O)c(C)c(O)c(Cc2c(O)c3c(c(C(=O)/C=C/c4ccccc4)c2O)OC(C)(C)C=C3)c1O	0.917 (active)
O=C(O)c1cc2cc(F)ccc2[nH]1	0.99 (inactive)
CN(C)CCN(Cc1cccs1)c1ccccn1	1.01 (inactive)
CC12NC(Cc3ccccc31)c1ccccc12 (stereo unspecified)	0.984 (inactive)
CCN(CC)CCOC(=O)c1cc(Cl)c(N)cc1OC	1.01 (inactive)
CNCCC(Oc1ccc(C(F)(F)F)cc1)c1ccccc1 (stereo unspecified)	0.983 (inactive)
O=C1NC(=O)C(c2ccccc2)(c2ccccc2)N1	1 (inactive)
N=C(N)SCCc1cnc[nH]1	0.988 (inactive)
CCCCCCCCCCCCCCCCCC(=O)NCC(COP(=O)([O-])OCC[N+](C)(C)C)OCC (stereo unspecified)	0.0501 (active)
C=CC1(C)CC(=O)C2(O)C(C)(O1)C(OC(C)=O)C(O)C1C(C)(C)CCC(O)C12C (stereo unspecified)	0.985 (inactive)
Cc1ncc(CNC(=O)N(CCCl)N=O)c(N)n1	1 (inactive)
CN1C2CCC1CC(OC(c1ccccc1)c1ccccc1N)C2 (stereo unspecified)	1 (inactive)
COc1cc(CC(=O)O)ccc1O	0.989 (inactive)
CNC(=O)[C@H]1O[C@@H](n2cnc3c(NCc4cccc(I)c4)ncnc32)C(O)[C@H]1O (stereo partly specified)	0.998 (inactive)
Cc1ccc(C(=O)Nc2ccc(S(=O)(=O)O)c3cc(S(=O)(=O)O)cc(S(=O)(=O)O)c23)cc1NC(=O)c1cccc(NC(=O)Nc2cccc(C(=O)Nc3cc(C(=O)Nc4ccc(S(=O)(=O)O)c5cc(S(=O)(=O)O)cc(S(=O)(=O)O)c45)ccc3C)c2)c1	1 (inactive)
NS(=O)(=O)c1cc2c(cc1Cl)NC=NS2(=O)=O	1 (inactive)
O=[N+]([O-])c1ccc(O[C@@H]2O[C@H](CO)[C@@H](O)[C@H](O)[C@H]2F)c([N+](=O)[O-])c1	0.991 (inactive)
CN1CC[C@@]2(C)c3cc(O)ccc3N(C)C12 (stereo partly specified)	0.995 (inactive)
O=C1C2C=CC=CC2=NC(=S)N1CCN1CCC(=C(c2ccc(F)cc2)c2ccc(F)cc2)CC1 (stereo unspecified)	1.01 (inactive)
C[C@H](Cc1ccccc1)Nc1ncnc2c1ncn2[C@@H]1O[C@H](CO)[C@H](O)C1O (stereo partly specified)	1.01 (inactive)
CC#C[C@]1(O)CC[C@H]2[C@@H]3CCC4=CC(=O)CCC4=C3[C@@H](c3ccc(N(C)C)cc3)C[C@@]21C	0.98 (inactive)
O=C(O)/C=C/C(=O)O	1.01 (inactive)
NC(Cc1ccc(N(CCCl)CCCl)cc1)C(=O)O (stereo unspecified)	0.996 (inactive)
CC[N+](CC)(CC)CC	1 (inactive)
